target: Histamine H2 receptor (Cavia porcellus) (UniProt P47747); test: Percent maximum response against histamine H2 receptor in guinea pig atrium was evaluated; type: tissue-based; details: Cardiac atrium
Sequence (P47747 whole entry): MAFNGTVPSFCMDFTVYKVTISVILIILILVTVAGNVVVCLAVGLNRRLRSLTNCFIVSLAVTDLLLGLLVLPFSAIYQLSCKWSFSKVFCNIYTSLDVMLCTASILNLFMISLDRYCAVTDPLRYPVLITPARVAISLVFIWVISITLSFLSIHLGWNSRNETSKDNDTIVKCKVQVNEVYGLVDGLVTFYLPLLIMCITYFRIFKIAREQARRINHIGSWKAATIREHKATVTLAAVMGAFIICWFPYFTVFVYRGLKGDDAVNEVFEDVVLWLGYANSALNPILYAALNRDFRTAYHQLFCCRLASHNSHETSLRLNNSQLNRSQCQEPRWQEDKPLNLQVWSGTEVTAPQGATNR
measured metric: Max response (%)

[
  {
    "compound structure": "CC1=NN(c2ccc([N+](=O)[O-])cc2)C(=O)C1[N+](=O)[O-].CN/C(=N\\CCCc1c[nH]cn1)NCCSCc1[nH]cnc1C",
    "measured metric": "Max response",
    "readout value": 91
  },
  {
    "compound structure": "Cc1[nH]cnc1CSCC/N=C(\\N)NCCCCc1c[nH]cn1",
    "measured metric": "Max response",
    "readout value": 20
  },
  {
    "compound structure": "N=C(NCCCc1c[nH]cn1)NCCCc1nccs1",
    "measured metric": "Max response",
    "readout value": 87
  },
  {
    "compound structure": "CC1=NN(c2ccc([N+](=O)[O-])cc2)C(=O)C1[N+](=O)[O-].N=C(NCCCc1c[nH]cn1)NCCCc1c[nH]cn1",
    "measured metric": "Max response",
    "readout value": 100
  },
  {
    "compound structure": "C/N=C(\\N)NCCc1c[nH]cn1",
    "measured metric": "Max response",
    "readout value": 62
  },
  {
    "compound structure": "N=C(NCCCCc1c[nH]cn1)NCCCc1c[nH]cn1",
    "measured metric": "Max response",
    "readout value": 85.5
  }
]
